# System: DU145
# PROTOCOL_DESCRIPTION: Euclidean distance of Cell Painting phenotypic profile (signed KS, 77 features) to DMSO centroid (dimensionless distance); 5 or 10 uM (library dependent); higher = stronger phenotypic change vs DMSO (phenoactivity)
# RUN_PARAMETERS: 48 h
Structures can show the parent of a compound that is named as a salt.
READOUT: Euclidean distance

>>> observed("C=C[C@@]1(C)CC(=O)[C@]2(O)[C@@]3(C)[C@@H](O)CCC(C)(C)[C@@H]3[C@H](O)[C@H](OC(C)=O)[C@@]2(C)O1")
1.39
>>> observed("CN(CCN1CCC(OC(=O)Nc2ccccc2-c2ccccc2)CC1)C(=O)c1ccc(CN2CCC(C(N)=O)CC2)cc1")
1.01
>>> observed("C[C@]12C=CC(=O)C=C1CC[C@@H]1[C@@H]2[C@@H](O)C[C@@]2(C)[C@H]1CC[C@]2(O)C(=O)CO")
2.31
>>> observed("C[C@@]1(C(=O)Nc2ccc(F)nc2)CCCN1c1nc(Nc2cc(C3CC3)n[nH]2)c2cccn2n1")
3.3
>>> observed("COc1cc2nccc(Oc3ccc(NC(=O)NC4CC4)c(Cl)c3)c2cc1C(N)=O [Lenvatinib (E7080)]")
1.02
>>> observed("COc1ccc(S(=O)(=O)Nc2cccnc2Nc2ccc(O)cc2)cc1")
3.18
>>> observed("CC(Cc1ccc(O)c(O)c1)C(C)Cc1ccc(O)c(O)c1 (stereo unspecified) [Nordihydroguaiaretic acid (NDGA)]")
1.27
>>> observed("CC(C)c1cc(-c2ccc(F)c3ccccc23)nc(N)n1")
0.946
>>> observed("CC(C)(O)CNc1nc(Nc2ccnc(C(F)(F)F)c2)nc(-c2cccc(C(F)(F)F)n2)n1")
1.69
>>> observed("C[C@H]1O[C@@H](Oc2c(-c3cc(O)c(O)c(O)c3)oc3cc(O)cc(O)c3c2=O)[C@@H](O)[C@@H](O)[C@@H]1O")
1.03
>>> observed("Cc1nc(Nc2ccc(F)cc2)nc(N2CCc3ccccc3C2C)c1C (stereo unspecified) [Revaprazan Hydrochloride]")
1.06
>>> observed("CC(=O)OCC1=C(C(=O)O)N2C(=O)[C@@H](NC(=O)Cc3cccs3)[C@H]2SC1")
0.824
>>> observed("O=S(=O)(c1ccccc1)N(CC(F)(F)F)c1ccc(C(O)(C(F)(F)F)C(F)(F)F)cc1")
1.07
>>> observed("N=C(NOCC(O)CN1CCCCC1)c1cccnc1 (stereo unspecified)")
1.06
>>> observed("Cc1cc(C#N)cc(C)c1Oc1nc(Nc2ccc(C#N)cc2)nc(N)c1Br")
1.7
>>> observed("CO/N=C(\\C(=O)N[C@@H]1C(=O)N2C(C(=O)O)=CCS[C@H]12)c1csc(N)n1 [Ceftizoxime sodium]")
1.33

----------
Recorded Euclidean distance, one value per entry.
# Test system: A549
# PROTOCOL_DESCRIPTION: Euclidean distance of Cell Painting phenotypic profile (signed KS, 77 features) to DMSO centroid (dimensionless distance); 5 or 10 uM (library dependent); higher = stronger phenotypic change vs DMSO (phenoactivity)
# RUN_PARAMETERS: 48 h
Structures can show the parent of a compound that is named as a salt.
READOUT: Euclidean distance

>>> observed("NC[C@H]1O[C@H](O[C@H]2[C@H](O)[C@@H](O[C@H]3O[C@H](CO)[C@@H](O)[C@H](N)[C@H]3O)[C@H](N)C[C@@H]2N)[C@H](O)[C@@H](O)[C@@H]1O [Kanamycin sulfate]")
0.801
>>> observed("c1cnc(NCc2ccc(CNc3ncccn3)cc2)nc1")
0.784
>>> observed("Nc1nc2c(ncn2COC(CO)CO)c(=O)[nH]1")
0.816
